experimental_target: catalytic domain (JH1, amino acids 826-1132) of human JAK2 (Homo sapiens)
Construct: catalytic domain (JH1, amino acids 826-1132) of human JAK2; FLAG (N); purchased Carna Biosciences 08-445-20N; host or cells: baculovirus expression system
Sequence (O60674 826-1132): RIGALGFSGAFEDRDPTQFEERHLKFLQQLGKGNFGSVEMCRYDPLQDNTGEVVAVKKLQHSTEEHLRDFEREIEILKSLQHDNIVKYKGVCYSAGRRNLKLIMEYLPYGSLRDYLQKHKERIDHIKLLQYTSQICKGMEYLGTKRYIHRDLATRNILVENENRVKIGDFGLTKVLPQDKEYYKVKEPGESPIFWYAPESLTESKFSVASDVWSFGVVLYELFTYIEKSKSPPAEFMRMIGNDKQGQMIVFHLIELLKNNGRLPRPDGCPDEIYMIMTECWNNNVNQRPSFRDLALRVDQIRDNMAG
test_protocol: JAK2 LanthaScreen JH1 Binding Assay
condition_context: JAK2 JH1 (1.5 nM), 50 nM fluorescent JAK2-JH1 tracer, 2 hours at 25° C.; read-out: JH1 BIND
endpoint: IC50

Some solved entries appear below for comparison.
Task: Determine from records and report IC50 for `CC(C)n1c(=O)n(C)c2cnc3[nH]c(C4=CCOCC4)c(-c4ccc(C#N)cc4)c3c21`
Output: > 1 µM

Task: Tell me its IC50 given `Cn1c(=O)n(C2CCCC2)c2c3c(-c4ccc(C5(C#N)CC5)cc4)c(-c4cnn(CS(C)(=O)=O)c4)[nH]c3ncc21` as the entry.
Output: 0.1 to 0.5 µM

Task: Indicate its recorded IC50; the compound in question is `Cc1cn2cc(-c3c(-c4cnn(CC(C)(C)O)c4)[nH]c4ncc5c(c34)n(C(C)C)c(=O)n5C)cc2cn1`
Output: > 1 µM

Continuing:
Task: Supply reported IC50 belonging to this compound: `Cn1ncc2cc(-c3c(-c4cnn5c4CCC5)[nH]c4ncc5c(c34)n(C3CCOCC3)c(=O)n5C)ccc21`
Output: > 1 µM
